B1: BBSome complex member BBS4 (Homo sapiens), Q96RK4 (parent)
chain: MAEERVATRTQFPVSTESQKPRQKKAPEFPILEKQNWLIHLHYIRKDYEACKAVIKEQLQETQGLCEYAIYVQALIFRLEGNIQESLELFQTCAVLSPQSADNLKQVARSLFLLGKHKAAIEVYNEAAKLNQKDWEISHNLGVCYIYLKQFNKAQDQLHNALNLNRHDLTYIMLGKIHLLEGDLDKAIEVYKKAVEFSPENTELLTTLGLLYLQLGIYQKAFEHLGNALTYDPTNYKAILAAGSMMQTHGDFDVALTKYRVVACAVPESPPLWNNIGMCFFGKKKYVAAISCLKRANYLAPFDWKILYNLGLVHLTMQQYASAFHFLSAAINFQPKMGELYMLLAVALTNLEDIENAKRAYAEAVHLDKCNPLVNLNYAVLLYNQGEKKNALAQYQEMEKKVSLLKDNSSLEFDSEMVEMAQKLGAALQVGEALVWTKPVKDPKSKHQTTSTSKPASFQQPLGSNQALGQAMSSAAAYRTLPSGAGGTSQFTKPPSLPLEPEPAVESSPTETSEQIREK
partner: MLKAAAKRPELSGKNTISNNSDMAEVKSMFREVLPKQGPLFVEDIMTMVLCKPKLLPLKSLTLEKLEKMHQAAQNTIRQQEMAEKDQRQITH

variants of: B1; settings: with bbip1_human BBIP1, A8MTZ0
Recorded Metric: effect of a mutation on the interaction

Answered examples (5):
C279K : with no effect
Q470K : with no effect
S415A : with no effect
E412K : with no effect
A296E : with no effect

Return the recorded effect of a mutation on the interaction value; entry: A347K
with no effect
